tested on: Corn; test: Post-emergence treatment, phytotoxicity to corn; assay type: in vivo; settings: post-emergence (about 3 leaf stage), 1,000 g/ha, 4 weeks after spraying, scale 0 to 10 (0: no effects, 10: complete death)
METRIC NAME: Phytotoxicity, Corn
Lab note: write the figure by itself, no unit.

The recorded Phytotoxicity, Corn for entry Cc1ccccc1C1=NOC(C)(COCc2ccccc2)C1 (stereo not drawn) [Reference C] equals 2

The recorded Phytotoxicity, Corn for entry CC1(COCc2ccccc2F)CC(c2ccccc2[N+](=O)[O-])=NO1 (stereo not drawn) [Reference A] equals 0

The recorded Phytotoxicity, Corn for entry Cc1ccccc1C1=NOC(C)(COCc2c(F)cccc2F)C1 (stereo not drawn) [Compound 1] equals 2

The recorded Phytotoxicity, Corn for entry Cc1cccc(C2=NOC(C)(COCc3c(F)cccc3F)C2)c1 (stereo not drawn) [Reference F] equals 2

The recorded Phytotoxicity, Corn for entry Cc1ccccc1C1=NOC(C)(COCc2ccccc2F)C1 (stereo not drawn) [Reference D] equals 0

The recorded Phytotoxicity, Corn for entry CC1(COCc2c(F)cccc2F)CC(c2ccccc2F)=NO1 (stereo not drawn) [Compound 4] equals 4

The recorded Phytotoxicity, Corn for entry CC1(COCc2c(F)cccc2Cl)CC(c2ccccc2Cl)=NO1 (stereo not drawn) [Reference B] equals 0

The recorded Phytotoxicity, Corn for entry CC1(COCc2c(F)cccc2F)CC(c2ccccc2Cl)=NO1 (stereo not drawn) [Compound 2] equals 2

The recorded Phytotoxicity, Corn for entry Cc1ccc(C2=NOC(C)(COCc3c(F)cccc3F)C2)cc1 (stereo not drawn) [Reference G] equals 0

The recorded Phytotoxicity, Corn for entry CC1(COCc2c(F)cccc2F)CC(c2ccccc2C(F)(F)F)=NO1 (stereo not drawn) [Compound 5] equals 5

The recorded Phytotoxicity, Corn for entry CC1(COCc2c(F)cccc2Cl)CC(c2ccccc2)=NO1 (stereo not drawn) [Reference H] equals 0

The recorded Phytotoxicity, Corn for entry Cc1ccccc1C1=NOC(C)(COCc2c(F)cccc2Cl)C1 (stereo not drawn) [Reference E] equals 3

Recorded values, source patent US9439432B2.
